Provide the recorded IC50 at 48 h for the entries that follow.
Assay: Cytotoxicity against human BEAS-2B cells assessed as reduction in cell viability after 48 hrs by MTT assay
Assay type: toxicity, cell-based
One number for each entry, in µM.

Below: 4 molecules and their reported IC50 at 48 h.
molecule	u	number
NC(=O)O[C@@H]1[C@H](O)[C@@H](O[C@H]2C(OCCCCCC(=O)Nc3ccn(C4OC(CO)C(O)C4(F)F)c(=O)n3)O[C@H](CO)[C@H](O)[C@H]2O)O[C@H](CO)[C@H]1O (stereo not given in full)	µM	2.6
CC(=O)OC[C@H]1OC(OCCCCCC(=O)Nc2ccn(C3OC(CO)C(O)C3(F)F)c(=O)n2)[C@@H](O)[C@@H](OC(N)=O)[C@@H]1O (stereo not given in full)	µM	7.77
Nc1ccn([C@@H]2O[C@H](CO)[C@@H](O)C2(F)F)c(=O)n1	µM	0.037
CC(=O)OC[C@H]1OC(OCCCCCC(=O)Nc2ccn(C3OC(CO)C(O)C3(F)F)c(=O)n2)[C@@H](O)[C@@H](O)[C@@H]1O (stereo not given in full)	µM	7.78

Next, consider the following molecule.
Query: Given the molecule CC(=O)OC[C@H]1OC(OCCCCCC(=O)Nc2ccn(C3OC(CO)C(O)C3(F)F)c(=O)n2)[C@H](O)[C@H](O)[C@H]1O (stereo not given in full) , what is its reported IC50 at 48 h?
Result: 5.43
